I'd appreciate it if you could supply pIC50 values for the items below.
- STUDY TARGET: CYP2D6 (Homo sapiens)
- Sequence (P10635 whole entry): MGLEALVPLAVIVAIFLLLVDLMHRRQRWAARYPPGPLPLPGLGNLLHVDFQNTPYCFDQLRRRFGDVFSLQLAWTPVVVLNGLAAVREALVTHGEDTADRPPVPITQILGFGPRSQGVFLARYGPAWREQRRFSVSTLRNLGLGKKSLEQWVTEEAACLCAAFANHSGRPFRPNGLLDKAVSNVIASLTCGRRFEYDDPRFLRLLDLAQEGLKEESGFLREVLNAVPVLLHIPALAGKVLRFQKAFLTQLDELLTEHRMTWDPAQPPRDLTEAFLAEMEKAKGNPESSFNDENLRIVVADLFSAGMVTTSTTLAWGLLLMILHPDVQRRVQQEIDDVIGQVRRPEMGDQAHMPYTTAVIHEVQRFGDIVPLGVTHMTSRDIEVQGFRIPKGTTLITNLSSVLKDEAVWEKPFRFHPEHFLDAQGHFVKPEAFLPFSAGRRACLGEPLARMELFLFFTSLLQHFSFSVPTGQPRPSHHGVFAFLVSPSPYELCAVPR
- METHOD DESCRIPTION: Inhibition of CYP2D6 in human liver microsomes
pIC50: −log10 of the molar value.

Summary: CCC(C#N)(CC)c1ccc(CCC2(C3CCCC3)CC(=O)C(Cc3nc4nc(C)cc(C)n4n3)C(=O)O2)cc1F (configuration not stated) , CYP2D6 (Homo sapiens), pIC50 = < 5.22

Summary: Cc1cc(C)n2nc(CC3C(=O)CC(CCc4ccc(C(C)(C)O)c(F)c4)(C4CCCC4)OC3=O)nc2n1 (configuration not stated) , CYP2D6 (Homo sapiens), pIC50 = < 5.22
